The reported numbers originate from the OligoGym collection.

Let's look at some sequences and their measured sensor-assay potency score (higher = more potent).
target: PRKX; assay: pooled miR-30 sensor sort-seq; sequence = guide strand; settings: shRNA; also: reference of the scale not given here
// return a plain number; no unit text

Some entries whose results are on file:
Form field: reported sensor-assay potency score (higher = more potent) of TTCCTAATCGCCTTGTTCTGTC
-0.396

For TAATGAGGTCTTTTACATGGAA then?
-0.747

For TCGCCTTGTTCTGTCAACCACG then?
-0.962

Next:
Form field: reported sensor-assay potency score (higher = more potent) of TCATGTTTCCTAATCGCCTTGT
0.781

For TTCATGTTTCCTAATCGCCTTG then?
-0.603

For TTGGAGTGCAGGTACTCGATGG then?
-0.357

For TAGCTGAAGAGCTCGCCGCCCG then?
-0.771

For TTAATGAGGTCTTTTACATGGA then?
-0.298
